# Target Under Test: SARS-COV-2 RBD extracellular domain expressed with a C-terminal mouse IgG2a (SARS-COV-2 RBD-mFc) (SARS-CoV-2)
# Experimental Protocol: SPR, captured mAb, RBD-mFc in solution, 37 C
Assay Readout: kon (M⁻¹ s⁻¹)

>>> endpoint_result("mAb10982 (antibody, V domains shown) VH: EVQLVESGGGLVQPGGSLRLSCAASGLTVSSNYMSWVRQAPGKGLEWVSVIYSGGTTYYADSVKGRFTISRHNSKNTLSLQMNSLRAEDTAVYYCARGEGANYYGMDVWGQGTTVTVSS VL: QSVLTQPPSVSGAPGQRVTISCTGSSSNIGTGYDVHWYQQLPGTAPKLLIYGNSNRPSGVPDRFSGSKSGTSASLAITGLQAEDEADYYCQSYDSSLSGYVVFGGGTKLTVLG")
"1.23e+06"
